Molecular target: Bcat-Halo (UniProt P35222)
Sequence (P35222 whole entry): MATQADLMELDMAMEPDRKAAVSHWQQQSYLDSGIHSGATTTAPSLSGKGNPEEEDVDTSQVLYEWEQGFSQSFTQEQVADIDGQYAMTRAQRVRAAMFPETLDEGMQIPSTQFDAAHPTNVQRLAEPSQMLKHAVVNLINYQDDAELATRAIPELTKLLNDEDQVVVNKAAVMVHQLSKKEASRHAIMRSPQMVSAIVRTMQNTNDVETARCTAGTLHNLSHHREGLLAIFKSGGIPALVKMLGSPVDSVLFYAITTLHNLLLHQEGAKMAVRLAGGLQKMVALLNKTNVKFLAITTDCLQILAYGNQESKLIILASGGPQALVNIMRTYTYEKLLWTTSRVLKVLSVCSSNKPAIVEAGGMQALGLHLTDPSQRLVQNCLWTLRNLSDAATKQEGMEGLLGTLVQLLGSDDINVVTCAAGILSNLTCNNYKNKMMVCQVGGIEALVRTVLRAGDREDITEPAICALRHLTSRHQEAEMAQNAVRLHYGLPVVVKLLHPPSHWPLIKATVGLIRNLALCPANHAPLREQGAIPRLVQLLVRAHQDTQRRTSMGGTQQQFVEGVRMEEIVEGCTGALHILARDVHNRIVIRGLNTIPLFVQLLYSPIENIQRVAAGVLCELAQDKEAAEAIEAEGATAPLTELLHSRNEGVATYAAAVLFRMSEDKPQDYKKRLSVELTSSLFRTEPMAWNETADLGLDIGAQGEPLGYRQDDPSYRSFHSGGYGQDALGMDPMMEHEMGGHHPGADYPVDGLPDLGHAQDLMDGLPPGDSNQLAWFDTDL
Assay: NanoBRET Abs IC50 in HEK293 cells; Bcat-Halo with TCF4-Luc as competitor
Starred links: 1 amine or outer side, 2 acyl side, 3 side chain; linkers in the order of their positions; H or OH if unused. Positions of bridges follow the written chain, without caps; N, C: chain ends. Non-standard residues stand in square brackets, D forms with d. Primed or numbered codes have the meaning given here. PyrS2″ = (S)-3-amino-1-((pent-4-en-1-yloxy)carbonyl)pyrrolidine-3-carboxylic acid (stapling residue), C=CCCCOC(=O)N1CC[C@@](N[*:1])(C(=O)[*:2])C1; B5(4) = 2,2-bis(4-pentenyl)glycine = 2-amino-2-(pent-4-en-1-yl)hept-6-enoic acid (stitching residue), C=CCCCC(CCCC=C)(N[*:1])C(=O)[*:2]; B5(5) = 2,2-bis(4-pentenyl)glycine, 2-amino-2-(pent-4-en-1-yl)hept-6-enoic acid (stitching residue), C=CCCCC(CCCC=C)(N[*:1])C(=O)[*:2]; Phe(2-Cl) = N[C@@H](Cc1ccccc1Cl)C(=O)O; Bta = N[C@@H](Cc1csc2ccccc12)C(=O)O; αAllylPro = C=CC[C@@]1(C(=O)O)CCCN1; tBuAla = CC(C)(C)C[C@H](N)C(=O)O; Cha = N[C@@H](CC1CCCCC1)C(=O)O; S8 = C=CCCCCCC[C@](C)(N)C(=O)O; Thr(ol) = C[C@@H](O)[C@H](N)CO; Phe(ol) = N[C@H](CO)Cc1ccccc1
Property: IC50; scope: individual binders
observable: IC50 (µM)

binder="Ac-[αAllylPro]D[tBuAla][B5(4)]DDAAFT[S8][Phe(2-Cl)][Bta]Q-NH2 (staple 1-4, 4-11; also: later-eluting HPLC peak staple isomer composition) [I-1087]" observable=IC50 modifier== data_value=9.3
binder="Ac-[αAllylPro]D[tBuAla][B5(5)]DDAAFL[S8][Phe(2-Cl)][Bta][dT]-NH2 (staple 1-4, 4-11) [I-1097]" observable=IC50 modifier=> data_value=20
binder="Ac-[αAllylPro]D[tBuAla][B5(4)]DDAAFN[PyrS2″][Phe(2-Cl)][Bta][Thr(ol)] (staple 1-4, 4-11) [I-1082]" observable=IC50 modifier== data_value=14.1
binder="Ac-[αAllylPro]D[tBuAla][B5(4)]DDAAFN[PyrS2″][Phe(2-Cl)][Bta][Phe(ol)] (staple 1-4, 4-11) [I-1083]" observable=IC50 modifier== data_value=18.8
binder="Ac-[αAllylPro]D[tBuAla][B5(5)]DDAA[Cha]S[PyrS2″]F[Bta]S-NH2 (staple 1-4, 4-11) [I-1105]" observable=IC50 modifier=> data_value=20
binder="Ac-[αAllylPro]D[tBuAla][B5(5)]DDAAFS[PyrS2″]F[Bta]S-NH2 (staple 1-4, 4-11) [I-1099]" observable=IC50 modifier== data_value=9
binder="Ac-[αAllylPro]D[tBuAla][B5(5)]DDAAFS[PyrS2″][Cha][Bta]S-NH2 (staple 1-4, 4-11) [I-1106]" observable=IC50 modifier=> data_value=20

Where do these numbers come from? They come from patent US20240116985A1.
